- Tested on: HS 578T breast
- measurement description: NCI-60 one-dose screen, 48 h (100 = growth as untreated, 0 = no growth, -100 = all killed)
- test conditions: 10 µM unless noted
The panel holds about 83,000 compounds, 20% with a hit somewhere; the sample as a whole holds those more often.
Values of growth greater than or equal to 70% map to satisfied; values below map to not satisfied.

Example cases with answers are listed next.
| compound | experimental target | assigned category |
| --- | --- | --- |
| C=C1C(=O)O[C@H]2[C@H]1CC/C(COC(=O)OC/C1=C/CC[C@@]3(C)O[C@H]3[C@H]3OC(=O)[C@@H](CN(C)C)[C@@H]3CC1)=C\CC[C@@]1(C)O[C@@H]21 | HS 578T breast | not satisfied |
| C/C(=N/O)c1ccc(NC(=O)Cn2nc(-c3ccc(Cl)cc3)nc2N)cc1 | HS 578T breast | satisfied |
| S=c1[nH]nc(Cn2c3ccccc3c3ccncc32)o1 | HS 578T breast | satisfied |

Here's the next entry for you.
Given "O=C(N/N=C1\SCC(=O)N1c1ccccc1)c1cc(-c2cc3ccccc3o2)nn1-c1ccccc1" , state whether its growth is at least 70%.
satisfied

----------
- Test system: NCI-H522 lung
- measurement description: NCI-60 one-dose screen, 48 h
- test conditions: 10 µM unless noted
- Experimental: Growth inhibition of the NCI-H522 human Non-Small Cell Lung tumor cell line is measured as a screen for anti-cancer activity. Cells are grown in 96 well plates and exposed to the test compound for 48 hours. Compounds are tested at a single concentration, which is 10^-5 M for most compounds. The reported endpoint is percent growth (GI% or GIPRCNT), where numbers from 0 - 100% represent growth inhibition, and numbers from -100% - 0 represent cell death. […]
This is part of a sample that, as a whole, favours compounds with a hit. Of some 83,000 tested, about 20% had one in any assay. The source made the active and inactive calls. The calls were made as follows: active = growth percent below 10; inactive = the rest.
Write down one outcome, taken from true (1) = active, false (0) = inactive

| compound | assigned category |
| --- | --- |
| COc1ccc(-c2nnc(SCC(=O)Nc3ccc(C(=O)/C=C/c4ccc(Cl)cc4)cc3)o2)cc1OC | false (0) |
| CC(CCC(=O)O)[C@H]1CCC2C3C(=O)C[C@@H]4CC(=O)CC[C@]4(C)C3CC(=O)[C@@]21C (some centres not stated) | false (0) |
| Fc1ccc(Nc2ncnc3ccc(-c4cn[nH]c4)cc23)cc1Cl | false (0) |
| Cc1ccc(/C=C2/C(=O)Nc3cc(Cl)c(-c4csc(N)n4)cc32)cc1 | false (0) |
| O=C1c2ccccc2C(=O)c2c(NCCN=Cc3c(O)ccc4ccccc34)cccc21 | false (0) |

Name the outcome recorded for CC(Cc1cccc(C(F)(F)F)c1)NCCOC(=O)c1ccccc1 (configuration not stated) in the assay.
false (0)

Hi, sorry to bother you, what did the test record for "CCc1c(C)c2cc(-n3c(-c4ccc(OC)cc4)csc3=N)c(O)c(C)c2oc1=O" ?
true (1)

Hey, what did the test say about CC(C(=O)O)N1C(N)=NNC1c1ccccc1O (configuration not stated) ?
false (0)

In this assay, the call recorded for "CCCCN(CCCC)c1ccc(C(=N)c2ccc(N(C)C)cc2)cc1" was what?
true (1)

----------
- System: OVCAR-3 ovarian
- measurement description: NCI-60 one-dose screen, 48 h (100 = growth as untreated, 0 = no growth, -100 = all killed)
- test conditions: 10 µM unless noted
Compounds without any hit were thinned out: in the full panel of roughly 83,000, 20% have a hit.
Readings of growth for the listed molecules
Lab book: enter the figure in %, no units written.

| molecule | result unit | measured |
| --- | --- | --- |
| Cc1c(NC(=O)c2sc3nc4c(cc3c2N)CN(Cc2ccccc2)CC4)cccc1C(F)(F)F | % | 6.31 |
| COc1ccc(-c2[nH]c3ccccc3c2/C=C(\C#N)S(=O)(=O)c2ccccc2)cc1 | % | -35.7 |
| CC(C)(C)C(=O)/C=c1/[nH]c(=O)/c(=C/c2ccccc2O)s1 | % | 20.2 |
| Nc1ncnc2c1c(-c1ccc(Oc3ccccc3)cc1)nn2C[C@@H]1SSC[C@H]1O | % | 18.3 |
| O=S(=O)(O)c1ccc(F)cc1 | % | 106 |

Log: OVCAR-3 ovarian, molecule "CS(=O)(=O)Nc1cccc(-c2ccc3ncnc(Nc4cncc(Cl)c4)c3c2)c1" , growth = 31.9

Record "Nc1ncnc2c1ccn2-c1cccc(NC(=O)c2cccc(C(F)(F)F)c2)c1" ; system OVCAR-3 ovarian; growth = 80

Record "O=C(Nc1ccc(-n2ccc3c(NC(=O)c4ccccc4)ncnc32)cc1)c1cccc(C(F)(F)F)c1" / OVCAR-3 ovarian, growth recorded as 54.4

Lab entry: OVCAR-3 ovarian assay, molecule O=S(c1ccccc1)c1ccc2nnnn2n1 (stereo unspecified) , growth = 83.8

The molecule COc1ccc(SC2c3ccc(O)cc3Oc3nc(N)c(C#N)c(N)c32)cc1 (stereo unspecified) on OVCAR-3 ovarian: growth was 88.1

Record for "O=C(CNc1cccnc1)Nc1ccc(C(=O)/C=C/c2ccc(Cl)cc2)cc1" under target or system OVCAR-3 ovarian: growth reported as 89.8

----------
- Test system: SNB-75 CNS
- measurement description: NCI-60 one-dose screen, 48 h (100 = growth as untreated, 0 = no growth, -100 = all killed)
- test conditions: 10 µM unless noted
This is part of a sample that, as a whole, favours compounds with a hit. Of some 83,000 tested, about 20% had one in any assay.
Catalogue of compounds with associated growth
// units = %; emit number, no label

Worked set:
| compound | experimental target | growth, % |
| --- | --- | --- |
| NC(=O)C1=C[C@H]2[C@H]3C=C[C@@]2(O)C(=O)O[C@@H]3O1 | SNB-75 CNS | 76.7 |
| O=S(c1ccccc1)c1ccc2nnnn2n1 (stereo not given) | SNB-75 CNS | 107 |
| COc1cc(/C=C2/Oc3cc4occc4c(OC)c3C2=O)ccc1OCC(=O)Nc1ccncc1 | SNB-75 CNS | 96.5 |
| O=C(C[n+]1ccccc1Cl)c1ccc2c(c1)CCCC2 | SNB-75 CNS | 88.4 |

# ---- query compound ----
Record "COc1ccc(/C(=C/c2cc(OC)c(OC)c(OC)c2)[N+](=O)[O-])cc1" , field growth: 49.2

----------
Examples of compounds with documented growth follow.
- System: MDA-MB-435 melanoma
- measurement description: NCI-60 one-dose screen, 48 h (100 = growth as untreated, 0 = no growth, -100 = all killed)
- test conditions: 10 µM unless noted
This is part of a sample that, as a whole, favours compounds with a hit. Of some 83,000 tested, about 20% had one in any assay.
Response body: numeric value in %, unit text excluded.

| compound | growth [%] |
| --- | --- |
| Nc1ccc(S(=O)(=O)Nc2cc(I)cc(I)c2)cc1 | 106 |

// recorded growth for CC1=C[S+](c2ccccc2)c2cccc3cc4ccccc4c1c23 (centres undefined) : 0.153

For reference, reported growth for COCCNC(C(=O)c1ccccc1)c1ccccc1 (centres undefined) stands at 103

Record "C[C@H]1C=C(C[C@@H](O)CC#CC#CCCCCC[C@@H](O)[C@H]2CCC(=O)O2)C(=O)O1" . Reported growth: 111

Looking up "CCN(CC)CCNC(=O)c1c(C)[nH]c(/C=C2\C(=O)Nc3cc(NC(=O)NC(=O)c4ccc(OC)cc4F)ccc32)c1C" , I see its growth listed as 110

Entry CCC1CN2C(=N1)c1ccccc1-c1cc(Cl)ccc12 (centres undefined) — recorded growth = 25.4

// growth value for "O=c1c2ccccc2[nH]n1Cc1ccc2c(c1)OCO2" : 105

What the record says about Cc1cc(C)c(O)c(C(=O)CC(Br)C(=O)O)c1 (centres undefined) : growth is 102

Per the records, this compound ( "COC(=O)c1ccc2c(c1)Oc1ccc(Cl)cc1-c1cc(C)nn1-2" ) has growth equal to 97.5

----------
- Test system: HOP-92 NSCLC
- measurement description: NCI-60 one-dose screen, 48 h
- test conditions: 10 µM unless noted
About 83,000 compounds went through this panel and 20% of them were active in at least one assay; those are over-represented in the sample as a whole. The source made the active and inactive calls. Rule for the calls: active = growth percent below 10; inactive = the rest.
The reply should be one of these categories: 1.0 = active, 0.0 = inactive

These recorded examples may help you get a feel for the data.
| compound | assigned category |
| --- | --- |
| Cc1cc2c(cc1C)N(C(=O)CCl)CCN2C(=O)CCl | 1.0 |
| COc1cc2ncnc(Oc3ccc(NC(=O)Nc4ccc(CN5CCOCC5)c(C(F)(F)F)c4)c4ccccc34)c2cc1OC | 1.0 |
| O=C1c2ccccc2OC=C(c2ccccc2)N1CCCCNc1ccc(F)cc1 | 0.0 |
| C#CCn1c(-c2cc(OC)c(OC)cc2Br)nc(-c2ccccc2)c1-c1ccccc1 | 0.0 |
| CCC(N)(C(=O)O)c1ccc(F)cc1 (stereo not drawn) | 0.0 |
| CS(=O)(=O)OCC(COS(C)(=O)=O)C(c1ccccc1)c1ccccc1 | 0.0 |
| CCC1CN2C(=N1)c1ccccc1-c1cc(Cl)ccc12 (stereo not drawn) | 1.0 |

Shifting focus to the compound that follows.
Which result was noted for this compound in the test: "Fc1ccc(Nc2ncnc3ccc(-c4cn[nH]c4)cc23)cc1Cl"
0.0

Taken from PubChem BioAssay (NCI).
